- TARGET_OF_ASSAY: Glutaminase kidney isoform, mitochondrial (Homo sapiens, UniProt O94925)
- Sequence (O94925 whole entry, canonical isoform): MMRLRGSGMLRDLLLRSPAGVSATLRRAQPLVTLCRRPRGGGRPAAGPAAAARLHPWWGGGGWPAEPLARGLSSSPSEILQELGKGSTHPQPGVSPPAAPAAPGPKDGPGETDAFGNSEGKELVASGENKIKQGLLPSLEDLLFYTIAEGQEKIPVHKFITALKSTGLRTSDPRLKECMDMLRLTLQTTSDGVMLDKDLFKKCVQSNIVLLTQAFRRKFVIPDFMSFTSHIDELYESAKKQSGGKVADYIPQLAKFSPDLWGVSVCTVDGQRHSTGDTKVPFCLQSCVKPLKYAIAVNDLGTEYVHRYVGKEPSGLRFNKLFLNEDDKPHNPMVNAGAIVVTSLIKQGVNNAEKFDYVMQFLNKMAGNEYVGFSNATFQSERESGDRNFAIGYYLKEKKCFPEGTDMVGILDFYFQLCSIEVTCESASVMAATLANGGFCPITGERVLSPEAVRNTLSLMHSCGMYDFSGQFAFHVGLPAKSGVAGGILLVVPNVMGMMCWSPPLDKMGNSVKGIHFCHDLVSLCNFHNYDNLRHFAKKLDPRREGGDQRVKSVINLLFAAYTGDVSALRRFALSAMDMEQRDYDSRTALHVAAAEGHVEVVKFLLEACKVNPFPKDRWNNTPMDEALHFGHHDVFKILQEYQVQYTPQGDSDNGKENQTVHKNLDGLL
- ASSAY: Binding affinity to human GLS1 expressed in Escherichia coli strain BL21 (DE3)pLysS by SPR assay
MEASURED_QUANTITY: Kd (nM)

A = O=C(CCCC(=O)Nc1ccc(CCCCc2nnc(NC(=O)Cc3ccccn3)s2)nn1)NCCNC(=S)Nc1ccc2c(c1)C1(OC2=O)c2ccc(O)cc2Oc2cc(O)ccc21
B = Cc1ccc(Cn2cc(CCC(=O)Nc3nnc(CCCCc4nnc(NC(=O)Cc5ccccc5)s4)s3)nn2)c(C)c1
C = Cc1ccc(Cn2cc(CCC(=O)Nc3ccc(CCCCc4nnc(NC(=O)Cc5ccccn5)s4)nn3)nn2)cc1
[in] # sort list by recorded Kd, greatest to least Reply with the labels, ordered as the question asks.
[out] A, B, C
(A: 610 nM, B: 350 nM, C: 68 nM)
